percent binding listing for selected binders.
# TGT: T1, human B7-1 N82E on cells (Homo sapiens, UniProt P33681 35-280)
# T1 construct: C-terminally fused to mCherry; also called ASN82 GLU
# T1 chain: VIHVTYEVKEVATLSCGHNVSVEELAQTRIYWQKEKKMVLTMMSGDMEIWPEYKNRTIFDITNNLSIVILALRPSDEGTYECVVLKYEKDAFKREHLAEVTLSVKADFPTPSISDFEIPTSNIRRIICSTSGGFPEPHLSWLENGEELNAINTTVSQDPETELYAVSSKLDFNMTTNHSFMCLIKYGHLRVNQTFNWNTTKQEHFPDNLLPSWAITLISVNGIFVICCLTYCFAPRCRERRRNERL
# PROTOCOL_SUMMARY: cell-cell binding, flow cytometry; percent of the wild-type pair
Give the value in % but do not write % after it.

Solved cases (2 shown):
BINDER	percent binding (%)
human p75NTR P150H on cells (receptor, Fluorescent-tagged point mutant) KEACPTGLYTHSGECCKACNLGEGVAQPCGANQTVCEPCLDSVTFSDVVSATEPCKPCTECVGLQSMSAPCVEADDAVCRCAYGYYQDETTGRCEACRVCEAGSGLVFSCQDKQNTVCEECHDGTYSDEANHVDPCLPCTVCEDTERQLRECTRWADAECEEIPGRWITRSTPPEGSDSTAPSTQEPEAPPEQDLIASTVAGVVTTVMGSSQPVVTRGTTDNLIPVYCSILAAVVVGLVAYIAFKRWNSCKQNKQGANSRPVNQTPPPEGEKLHSDSGISVDSQSLHDQQPHTQTASGQALKGDGGLYSSLPPAKREEVEKLLNGSAGDTWRHLAGELGYQPEHIDSFTHEACPVRALLASWATQDSATLDALLAALRRIQRADLVESLCSESTATSPV	10
human p75NTR F136K on cells (receptor, Fluorescent-tagged point mutant) KEACPTGLYTHSGECCKACNLGEGVAQPCGANQTVCEPCLDSVTFSDVVSATEPCKPCTECVGLQSMSAPCVEADDAVCRCAYGYYQDETTGRCEACRVCEAGSGLVKSCQDKQNTVCEECPDGTYSDEANHVDPCLPCTVCEDTERQLRECTRWADAECEEIPGRWITRSTPPEGSDSTAPSTQEPEAPPEQDLIASTVAGVVTTVMGSSQPVVTRGTTDNLIPVYCSILAAVVVGLVAYIAFKRWNSCKQNKQGANSRPVNQTPPPEGEKLHSDSGISVDSQSLHDQQPHTQTASGQALKGDGGLYSSLPPAKREEVEKLLNGSAGDTWRHLAGELGYQPEHIDSFTHEACPVRALLASWATQDSATLDALLAALRRIQRADLVESLCSESTATSPV	77

Field percent binding (entry human p75NTR F136H on cells (receptor, Fluorescent-tagged point mutant) KEACPTGLYTHSGECCKACNLGEGVAQPCGANQTVCEPCLDSVTFSDVVSATEPCKPCTECVGLQSMSAPCVEADDAVCRCAYGYYQDETTGRCEACRVCEAGSGLVHSCQDKQNTVCEECPDGTYSDEANHVDPCLPCTVCEDTERQLRECTRWADAECEEIPGRWITRSTPPEGSDSTAPSTQEPEAPPEQDLIASTVAGVVTTVMGSSQPVVTRGTTDNLIPVYCSILAAVVVGLVAYIAFKRWNSCKQNKQGANSRPVNQTPPPEGEKLHSDSGISVDSQSLHDQQPHTQTASGQALKGDGGLYSSLPPAKREEVEKLLNGSAGDTWRHLAGELGYQPEHIDSFTHEACPVRALLASWATQDSATLDALLAALRRIQRADLVESLCSESTATSPV ) reads 66
